Provenance of the data: ChEMBL document CHEMBL3616436

Test system: Micrococcus luteus
PROTOCOL TEXT: Antimicrobial activity against Micrococcus luteus ATCC 10240 at 400 ug after 18 hrs by disc-diffusion method
Format: functional
MEASUREMENT CONDITIONS: ATCC 10240, 18 h, read-out: IZ
Hi, to clarify the labels: met covers zone of inhibition at 400 µg/disc from 20 mm upward, not met covers anything below 20 mm.

{"SMILES REPR": "FC(F)(F)c1cccc(NC(=S)NCCc2ccccc2)c1", "ASSAYED TARGET": "Micrococcus luteus", "CATEGORY": "not met"}
{"SMILES REPR": "Fc1ccc(NC(=S)Nc2cccc(C(F)(F)F)c2)cc1Cl", "ASSAYED TARGET": "Micrococcus luteus", "CATEGORY": "met"}
{"SMILES REPR": "CCNC(=S)Nc1cccc(C(F)(F)F)c1", "ASSAYED TARGET": "Micrococcus luteus", "CATEGORY": "not met"}
{"SMILES REPR": "O=C(O)c1cn(C2CC2)c2cc(N3CCNCC3)c(F)cc2c1=O", "ASSAYED TARGET": "Micrococcus luteus", "CATEGORY": "met"}
{"SMILES REPR": "FC(F)(F)c1cccc(NC(=S)Nc2cccc(Cl)c2)c1", "ASSAYED TARGET": "Micrococcus luteus", "CATEGORY": "met"}
{"SMILES REPR": "N#Cc1ccc(NC(=S)Nc2cccc(C(F)(F)F)c2)cc1", "ASSAYED TARGET": "Micrococcus luteus", "CATEGORY": "not met"}
{"SMILES REPR": "FC(F)(F)c1cccc(NC(S)=Nc2ccc(Cl)c(Cl)c2)c1", "ASSAYED TARGET": "Micrococcus luteus", "CATEGORY": "not met"}
{"SMILES REPR": "FC(F)(F)c1cccc(NC(=S)Nc2ccccc2)c1", "ASSAYED TARGET": "Micrococcus luteus", "CATEGORY": "met"}

Determine whether measured zone of inhibition at 400 µg/disc meets or exceeds 20 mm for FC(F)(F)c1cccc(NC(S)=NCc2ccccc2)c1
not met

Then Fc1cccc(NC(=S)Nc2cccc(C(F)(F)F)c2)c1 ?
met

What would you report for FC(F)(F)c1cccc(NC(=S)NCc2ccco2)c1 ?
not met

Can you check Fc1ccc(NC(=S)Nc2cccc(C(F)(F)F)c2)cc1 next?
met

// same read-out, input: CSCCCNC(=S)Nc1cccc(C(F)(F)F)c1
not met

====

Test system: Staphylococcus aureus
PROTOCOL TEXT: Antimicrobial activity against Staphylococcus aureus ATCC 29213 after 18 hrs by twofold serial microdilution method
Type: functional
MEASUREMENT CONDITIONS: ATCC 29213, 18 h
Rule: measured MIC below 8 µg/mL gets Fulfilled; anything equal to or greater than 8 µg/mL gets Not fulfilled.

Here's what some known entries look like.
{"SMILES REPR": "C=C(C)CNC(=S)Nc1cccc(C(F)(F)F)c1", "ASSAYED TARGET": "Staphylococcus aureus", "CATEGORY": "Not fulfilled"}
{"SMILES REPR": "CSCCCNC(=S)Nc1cccc(C(F)(F)F)c1", "ASSAYED TARGET": "Staphylococcus aureus", "CATEGORY": "Not fulfilled"}
{"SMILES REPR": "O=[N+]([O-])c1ccc(NC(=S)Nc2cccc(C(F)(F)F)c2)cc1", "ASSAYED TARGET": "Staphylococcus aureus", "CATEGORY": "Not fulfilled"}
{"SMILES REPR": "Fc1ccc(NC(=S)Nc2cccc(C(F)(F)F)c2)cc1", "ASSAYED TARGET": "Staphylococcus aureus", "CATEGORY": "Not fulfilled"}
{"SMILES REPR": "FC(F)(F)c1cccc(NC(=S)Nc2cccc(Br)c2)c1", "ASSAYED TARGET": "Staphylococcus aureus", "CATEGORY": "Fulfilled"}

Please check: MIC for FC(F)(F)c1cccc(NC(=S)Nc2cccc(Cl)c2)c1 , strictly under 8 µg/mL or not?
Not fulfilled

Another: FC(F)(F)c1cccc(NC(=S)NCc2ccco2)c1
Not fulfilled

====

Give measured viability at 24 h, 16 µM for each item. Keep answers brief.
PROTOCOL TEXT: Cytotoxicity against human HaCaT cells assessed as cell viability at 16 uM after 24 hrs by MTT assay relative to control
Assay type: cell-based
MEASUREMENT CONDITIONS: read-out: Activity
One number for each entry, in %.

{"SMILES REPR": "FC(F)(F)c1cccc(NC(=S)Nc2cccc(Br)c2)c1", "RESULT UNIT": "%", "EXPERIMENTAL RESULT": 91}

Please give the measured viability at 24 h, 16 µM for this compound: Fc1ccc(NC(=S)Nc2cccc(C(F)(F)F)c2)cc1Cl
89.8

====

PROTOCOL TEXT: Antiviral activity against Bovine viral diarrhea virus 1-NADL ATCC VR-534 infected in MDBK cells assessed as protection against virus-induced cytopathogenicity after 3 to 4 days by MTT assay
Type: functional, cell-based
MEASUREMENT CONDITIONS: Bovine viral diarrhea virus isolates and strains, ATCC VR-534, MDBK
ASSAY ENDPOINT: EC50

Study these solved cases before continuing.
{"SMILES REPR": "FC(F)(F)c1cccc(NC(S)=NCc2ccccc2)c1", "ASSAY ENDPOINT": "EC50", "EXPERIMENTAL RESULT": "> 40 µM"}
{"SMILES REPR": "O=C(NC(=S)Nc1cccc(C(F)(F)F)c1)c1ccccc1", "ASSAY ENDPOINT": "EC50", "EXPERIMENTAL RESULT": "> 100 µM"}
{"SMILES REPR": "FC(F)(F)c1cccc(NC(=S)Nc2ccc(Cl)cc2)c1", "ASSAY ENDPOINT": "EC50", "EXPERIMENTAL RESULT": "> 17 µM"}
{"SMILES REPR": "FC(F)(F)c1cccc(NC(=S)Nc2cccc(Br)c2)c1", "ASSAY ENDPOINT": "EC50", "EXPERIMENTAL RESULT": "> 10 µM"}
{"SMILES REPR": "CCCCc1ccc(NC(=S)Nc2cccc(C(F)(F)F)c2)c(C)c1", "ASSAY ENDPOINT": "EC50", "EXPERIMENTAL RESULT": "> 10 µM"}
{"SMILES REPR": "FC(F)(F)c1cccc(NC(S)=NCCN2CCOCC2)c1", "ASSAY ENDPOINT": "EC50", "EXPERIMENTAL RESULT": "> 100 µM"}
{"SMILES REPR": "CC(=O)NC(=S)Nc1cccc(C(F)(F)F)c1", "ASSAY ENDPOINT": "EC50", "EXPERIMENTAL RESULT": "> 100 µM"}
{"SMILES REPR": "CCNC(=S)Nc1cccc(C(F)(F)F)c1", "ASSAY ENDPOINT": "EC50", "EXPERIMENTAL RESULT": "> 100 µM"}

Working through the 4 compounds below one at a time, give EC50 for each.
1. FC(F)(F)c1cccc(NC(=S)NCc2ccco2)c1
2. C=C(C)CNC(=S)Nc1cccc(C(F)(F)F)c1
3. Cc1ccc(NC(=S)Nc2cccc(C(F)(F)F)c2)cc1Cl
4. Fc1ccc(NC(=S)Nc2cccc(C(F)(F)F)c2)cc1

1: > 100 µM; 2: > 100 µM; 3: > 10 µM; 4: > 41 µM

====

PROTOCOL TEXT: Cytotoxicity against bovine MDBK cells assessed as cell viability after 48 to 96 hrs by MTT assay
Type: cell-based, Bos taurus
MEASUREMENT CONDITIONS: cattle
Exercise: for every item that follows, state its recorded CC50.
Give bare numbers, in µM.

{"SMILES REPR": "FC(F)(F)c1cccc(NC(=S)NC2CCCCC2)c1", "RESULT UNIT": "µM", "CC50": 48}
{"SMILES REPR": "FC(F)(F)c1cccc(NC(=S)Nc2ccccc2)c1", "RESULT UNIT": "µM", "CC50": 49}
{"SMILES REPR": "CCOC(=O)c1ccc(NC(=S)Nc2cccc(C(F)(F)F)c2)cc1", "RESULT UNIT": "µM", "CC50": 64}
{"SMILES REPR": "Fc1ccc(NC(=S)Nc2cccc(C(F)(F)F)c2)cc1", "RESULT UNIT": "µM", "CC50": 41}
{"SMILES REPR": "FC(F)(F)c1cccc(NC(=S)Nc2ccc(Cl)cc2)c1", "RESULT UNIT": "µM", "CC50": 17}

Provide each entry's CC50 from the list below.
1. FC(F)(F)c1cccc(NC(=S)Nc2cccc(Br)c2)c1
2. COc1cccc(NC(=S)Nc2cccc(C(F)(F)F)c2)c1
3. Fc1cccc(NC(=S)Nc2cccc(C(F)(F)F)c2)c1

1. 10
2. 52
3. 10
